# amyloid nucleation score annotations
METHOD: amyloid nucleation score (Sup35N fusion, yeast selection) (log enrichment); library NNK1; higher = more nucleation; inactive = no reads after selection;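 note: zero at mode of non-aggregating sequences after 7 days selection at 30°C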
ASSAY_READOUT: amyloid nucleation score

INSERT INTO results (residues, recorded_measurement) VALUES
  ('HPVIADDLSYAAVIKRYLGV', 0.267),
  ('TTIQGRPVNVAAFRTTLLTR', -1.11),
  ('SIPNSAQHFTSPPARFHSTG', 0.042),
  ('FLVHSTGGHVNISFTSVIYL', 7.89),
  ('SWRHMFYGVILGWHICSSGS', 0.925),
  ('CRMGMLYEISQC', 0.743);

====

METHOD: amyloid nucleation score (Sup35N fusion, yeast selection) (log enrichment); library NNK3; higher = more nucleation; inactive = no reads after selection
ASSAY_READOUT: amyloid nucleation score

INSERT INTO assay_data (substance, recorded_measurement) VALUES
  ('NTGLAFTSYMTMDLLCISGA', 'inactive'),
  ('YFRYIWEHMLVYGRVAKDDP', 'inactive'),
  ('IEVKDSVGVRCFYTYSPTCQ', 'inactive'),
  ('VNFLSGWEPVIVKYHRSA', 'inactive'),
  ('CLGIGWFWVPWRLGVYSQMV', 'inactive'),
  ('RLAFVHKMTLRMSRERYLAI', -0.009),
  ('CNYSVVFCCNFWDYYLKECA', 2.5),
  ('YRCSRNVENYGPSKRGYYTE', 'inactive'),
  ('VNITLLRCEGSGMFGRSSKL', 1.13),
  ('LCRRLQTGMAYHMVSSYFNW', 'inactive'),
  ('RILVMVNKG', 0.81),
  ('SRMSGVVGIAKV', 'inactive'),
  ('IKVISLEAMKTYCF', 'inactive'),
  ('FQPSSASPIGWIGMSAFDSW', 'inactive'),
  ('SSSVKEMQQPVTTTLETQST', 'inactive'),
  ('DLRSITMCWCIIPTGRCVVA', 'inactive'),
  ('LFFLRRNCHTDVSSLEYDNA', 'inactive'),
  ('SRRVNFLPVVFQHMTWLVLV', 'inactive'),
  ('KCAVDTV', 'inactive'),
  ('VQGRYLRRVCMRMVPLRRTD', 'inactive'),
  ('LDQTSRIVYVFTCSYWLDKV', 'inactive'),
  ('GLYKNK', 'inactive'),
  ('TCLLIYFMFHGEVMPLWSI', 'inactive'),
  ('HLRVMLLCFREYWDYAIMAL', 'inactive'),
  ('CMSTKTNFT', 'inactive'),
  ('LVYTVNLWNALIFHLD', 0.527),
  ('IGGRTDNSELTCTRGMRFLC', 'inactive'),
  ('SNGAGC', 'inactive'),
  ('LNFGEFILMAGDLLTLMCVF', 1.42),
  ('HYVKPSSESRR', 'inactive'),
  ('RGYRAK', 1.34),
  ('PRQTVISASQPDLNIRGFLC', 'inactive'),
  ('VTAMSMNVAQCPAYPR', 'inactive'),
  ('VVAIWLLGAINMLITTIYSS', 'inactive'),
  ('NCGVMEYGGILISYFE', 'inactive'),
  ('NFTSFCFSKMSRLEDSGQ', 'inactive'),
  ('TPHESLRTCFLTKR', 'inactive'),
  ('FVCLSNIHMGTKTVILAMCL', 'inactive'),
  ('LMIWVSDLSE', 'inactive'),
  ('FMEYFTCGV', 'inactive'),
  ('VKYDDSWYDDWHIYNVYRCK', 'inactive'),
  ('NKVISSSLTFRFIKVQFIYH', 'inactive'),
  ('QSGSTLTMLQWVIPSDSKLM', 'inactive'),
  ('GIFTLFYYVMMKLIFDFFTV', 'inactive'),
  ('LIHICHRVQPHMSCDCVAMW', 'inactive'),
  ('YWDDSMKYDLKMVERSVGGK', 'inactive'),
  ('NYVVIPRFMYLVQIYLKVFW', -0.064);
